- ASSAY SYSTEM: Recombinant human Mat2a (Homo sapiens (Human))
- Sequence (P31153 whole entry): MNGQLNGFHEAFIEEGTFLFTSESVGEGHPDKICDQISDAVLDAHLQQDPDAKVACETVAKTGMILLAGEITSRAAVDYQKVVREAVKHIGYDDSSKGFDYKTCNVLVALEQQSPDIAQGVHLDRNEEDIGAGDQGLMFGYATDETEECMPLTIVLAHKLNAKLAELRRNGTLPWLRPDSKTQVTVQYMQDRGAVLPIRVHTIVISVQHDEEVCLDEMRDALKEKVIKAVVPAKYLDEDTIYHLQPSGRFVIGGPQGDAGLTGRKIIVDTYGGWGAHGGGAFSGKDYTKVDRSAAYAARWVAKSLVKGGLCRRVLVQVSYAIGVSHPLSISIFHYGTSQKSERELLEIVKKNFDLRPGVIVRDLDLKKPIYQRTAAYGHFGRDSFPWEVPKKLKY
- EXPERIMENTAL DETAILS: Determination of Mat2A activity (384 well absorbance-based assay, Biomol Green)
- Assay type: biochemical
- MEASUREMENT PARAMETERS: 12.5 nM Mat2A, 100 μM ATP and Methionine, 2% DMSO, 120 minutes at RT, absorbance at 635 nm; read-out: MAT2A_LEC IC50 (uM) (Num)
Counter-ions that a name gives are not always drawn.
PROPERTY LABEL: IC50 (µM)

COMPOUND	UNIT TEXT	IC50
Cc1cc(-c2nccc3[nH]nc(OC(F)F)c23)ccc1S(=O)(=O)C1(C)CC1	µM	0.1

I. COc1cc2[nH]nc(C3CC3)c2c(-c2ccc(S(C)(=O)=O)c(C)c2)n1
II. Cc1cc(-c2nccc3[nH]cc(C4CC4)c23)ccc1S(C)(=O)=O
III. Cc1cc(S(C)(=O)=O)c(C)cc1-c1nccc2[nH]nc(C3CC3)c12 [Example 22, hydrochloride]
Please list these compounds in decreasing order of IC50. Write the labels, ordered according to the request.
III, II, I
